Entries with their measured pIC50, system 3-hydroxy-3-methylglutaryl-coenzyme A reductase (Rattus norvegicus, UniProt P51639):
pIC50: −log10 of the molar value.
Endpoint: pIC50

INSERT INTO measurements (compound, recorded_result) VALUES
  ('Cc1cc(C)c(CCC2C[C@@H](O)CC(=O)O2)c(-c2ccc(F)c(C)c2)c1 (stereo not given in full)', 7.66),
  ('Cc1cc(C)c(/C=C/[C@@H]2C[C@@H](O)CC(=O)O2)c(-c2ccc(F)cc2)c1', 7.89),
  ('O=C1C[C@H](O)CC(CCc2c(Cl)cc(Cl)cc2Cc2ccccc2)O1 (stereo not given in full)', 6.28),
  ('O=C1C[C@H](O)C[C@@H](/C=C/c2c(Cl)cc(Cl)cc2-c2ccc(Cl)c(Cl)c2)O1', 7.60),
  ('O=C1C[C@H](O)C[C@@H](/C=C/c2c(F)cc(F)cc2-c2ccc(F)cc2)O1', 6.07);

====

Molecular target: 3-hydroxy-3-methylglutaryl-coenzyme A reductase (Rattus norvegicus) (UniProt P51639)
Experiment: Inhibitory potency against purified rat liver HMG-CoA reductase relative to compactin
t means recorded Relative potency is 80 or above; f means it is below 80.

INSERT INTO results (compound, group) VALUES
  ('Cc1cccc(-c2cc(Cl)cc(Cl)c2/C=C/[C@@H]2C[C@@H](O)CC(=O)O2)c1', 't'),
  ('Cc1cc(C)c(/C=C/[C@@H]2C[C@@H](O)CC(=O)O2)c(/C=C/c2ccc(Cl)cc2)c1', 'f'),
  ('CCc1cccc(-c2cc(Cl)cc(Cl)c2/C=C/[C@@H]2C[C@@H](O)CC(=O)O2)c1', 'f'),
  ('Cc1cc(C)c(CCC2C[C@@H](O)CC(=O)O2)c(-c2ccc(F)c(C)c2)c1 (stereo not given in full)', 'f'),
  ('O=C1C[C@H](O)C[C@@H](/C=C/c2ccccc2-c2ccccc2)O1', 'f'),
  ('Cc1cc(-c2cccc(Cl)c2/C=C/[C@@H]2C[C@@H](O)CC(=O)O2)ccc1F', 'f'),
  ('Cc1cc(C)c(/C=C/[C@@H]2C[C@@H](O)CC(=O)O2)c(-c2ccc(F)c(C)c2)c1 (stereo in doubt; 110)', 't'),
  ('Cc1cc(C)c(/C=C/[C@@H]2C[C@@H](O)CC(=O)O2)c(-c2cc(C)c(F)c(C)c2)c1', 't'),
  ('COc1cccc(-c2cc(Cl)cc(Cl)c2/C=C/[C@@H]2C[C@@H](O)CC(=O)O2)c1', 'f'),
  ('O=C1C[C@H](O)C[C@@H](/C=C/c2ccc(Cl)cc2Cl)O1', 'f'),
  ('O=C1C[C@H](O)CC(CCc2c(Cl)cc(Cl)cc2Cc2ccccc2)O1 (stereo not given in full)', 'f'),
  ('O=C1C[C@H](O)C[C@@H](/C=C/c2c(Cl)cc(Cl)cc2-c2ccc(F)cc2)O1 (stereo in doubt; 100)', 't'),
  ('O=C1C[C@H](O)C[C@@H](/C=C/c2c(Cl)cc(Cl)cc2-c2ccc(F)cc2)O1 (stereo in doubt; 100(i)i)', 'f'),
  ('Cc1ccc(C)c(-c2ccc(Cl)c(Cl)c2)c1/C=C/[C@@H]1C[C@@H](O)CC(=O)O1', 't'),
  ('Cc1cc(-c2cc(Cl)cc(Cl)c2/C=C/[C@@H]2C[C@@H](O)CC(=O)O2)ccc1F', 't'),
  ('Cc1cc(F)ccc1-c1cc(Cl)cc(Cl)c1/C=C/[C@@H]1C[C@@H](O)CC(=O)O1', 'f'),
  ('O=C1C[C@H](O)C[C@@H](/C=C/c2c(Cl)cc(Cl)cc2-c2ccc(Cl)c(Cl)c2)O1', 't'),
  ('Cc1cc(C)c(/C=C/[C@@H]2C[C@@H](O)CC(=O)O2)c(-c2ccc(Cl)c(Cl)c2)c1', 't'),
  ('Cc1cc(C)c(/C=C/[C@@H]2C[C@@H](O)CC(=O)O2)c(-c2ccc(F)c(CO)c2)c1', 'f');

====

Biological target: 3-hydroxy-3-methylglutaryl-coenzyme A reductase (Rattus norvegicus)
Assay: Inhibitory potency against purified rat liver HMG-CoA reductase relative to compactin
The reader will find reported Relative potency values listed item by item below.
Endpoint: Relative potency

INSERT INTO results (compound, endpoint, recorded_result) VALUES
  ('Cc1ccccc1-c1cc(Cl)cc(Cl)c1/C=C/[C@@H]1C[C@@H](O)CC(=O)O1', 'Relative potency', 3.2),
  ('O=C1C[C@H](O)CC(CCc2c(Cl)cc(Cl)cc2-c2ccccc2)O1 (stereo partly drawn)', 'Relative potency', 18),
  ('O=C1C[C@H](O)C[C@@H](/C=C/c2c(F)cc(F)cc2-c2ccc(F)cc2)O1', 'Relative potency', 3.5),
  ('Cc1cc(Cl)c(/C=C/[C@@H]2C[C@@H](O)CC(=O)O2)c(-c2ccc(F)c(C)c2)c1', 'Relative potency', 92),
  ('Cc1cc(-c2cc(Cl)cc(C)c2/C=C/[C@@H]2C[C@@H](O)CC(=O)O2)ccc1F', 'Relative potency', 233),
  ('O=C1C[C@H](O)C[C@@H](/C=C/c2c(Cl)cc(Cl)cc2-c2ccc(Cl)cc2)O1', 'Relative potency', 58),
  ('O=C1C[C@H](O)CC(CCc2ccccc2-c2ccccc2)O1 (stereo partly drawn)', 'Relative potency', 0.44),
  ('O=C1C[C@H](O)C[C@@H](/C=C/c2c(Cl)cc(Cl)cc2CCc2ccccc2)O1', 'Relative potency', 2.8),
  ('Cc1cc(C)c(/C=C/[C@@H]2C[C@@H](O)CC(=O)O2)c(-c2ccc(F)c(C)c2)c1 (stereo in doubt; 110 (+))', 'Relative potency', 289),
  ('COc1ccc(-c2cc(Cl)cc(Cl)c2/C=C/[C@@H]2C[C@@H](O)CC(=O)O2)cc1', 'Relative potency', 2.6),
  ('Cc1ccc(-c2cc(Cl)cc(Cl)c2/C=C/[C@@H]2C[C@@H](O)CC(=O)O2)cc1', 'Relative potency', 11),
  ('Cc1cc(C)cc(-c2cc(C)cc(C)c2/C=C/[C@@H]2C[C@@H](O)CC(=O)O2)c1', 'Relative potency', 80),
  ('O=C1C[C@H](O)C[C@@H](/C=C/c2c(Cl)cc(Cl)cc2-c2ccccc2)O1', 'Relative potency', 26),
  ('Cc1cc(C)c(/C=C/[C@@H]2C[C@@H](O)CC(=O)O2)c(-c2ccc(F)c(C)c2)c1 (stereo in doubt; 110(-))', 'Relative potency', 0.18),
  ('O=C1C[C@H](O)C[C@@H](/C=C/c2c(Cl)cc(Cl)cc2-c2cccc(F)c2)O1', 'Relative potency', 38.6),
  ('Cc1cc(C)cc(-c2cc(Cl)cc(Cl)c2/C=C/[C@@H]2C[C@@H](O)CC(=O)O2)c1', 'Relative potency', 115),
  ('O=C1C[C@H](O)C[C@@H](/C=C/c2c(Cl)cc(Cl)cc2-c2ccc(F)cc2)O1 (stereo in doubt; 100(+)h)', 'Relative potency', 280),
  ('Cc1cc(C)c(/C=C/[C@@H]2C[C@@H](O)CC(=O)O2)c(-c2ccc(F)cc2)c1', 'Relative potency', 96);

====

Target: UniProt:P51639
Sequence (P51639 whole entry): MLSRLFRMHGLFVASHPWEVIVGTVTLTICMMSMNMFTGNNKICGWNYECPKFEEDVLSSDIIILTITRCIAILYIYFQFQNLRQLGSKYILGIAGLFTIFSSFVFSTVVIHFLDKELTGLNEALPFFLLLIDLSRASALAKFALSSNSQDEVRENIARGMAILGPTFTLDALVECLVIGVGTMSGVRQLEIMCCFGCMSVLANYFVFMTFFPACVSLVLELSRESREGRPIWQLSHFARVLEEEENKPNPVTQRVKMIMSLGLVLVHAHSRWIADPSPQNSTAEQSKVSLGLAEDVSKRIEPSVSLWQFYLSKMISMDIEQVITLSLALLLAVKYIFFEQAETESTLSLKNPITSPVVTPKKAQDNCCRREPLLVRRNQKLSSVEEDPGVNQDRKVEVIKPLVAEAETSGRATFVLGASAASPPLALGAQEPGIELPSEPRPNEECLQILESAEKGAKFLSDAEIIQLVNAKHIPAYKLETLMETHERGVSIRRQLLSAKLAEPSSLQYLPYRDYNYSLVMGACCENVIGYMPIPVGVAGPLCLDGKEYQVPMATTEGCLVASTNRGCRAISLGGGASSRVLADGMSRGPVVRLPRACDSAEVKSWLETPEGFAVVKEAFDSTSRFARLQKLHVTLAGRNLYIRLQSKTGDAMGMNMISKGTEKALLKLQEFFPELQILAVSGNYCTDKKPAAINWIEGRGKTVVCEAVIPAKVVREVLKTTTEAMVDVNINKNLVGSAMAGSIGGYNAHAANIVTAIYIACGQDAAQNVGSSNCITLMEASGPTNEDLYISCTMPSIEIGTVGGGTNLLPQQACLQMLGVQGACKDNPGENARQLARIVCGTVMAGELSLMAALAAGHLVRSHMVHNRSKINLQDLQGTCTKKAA
pIC50: −log10 of the molar value.
The reader will find reported pIC50 values listed item by item below.
Endpoint: pIC50

INSERT INTO measurements (molecule, subject_of_test, recorded_result) VALUES
  ('Cc1cc(-c2cc(Cl)cc(Cl)c2/C=C/[C@@H]2C[C@@H](O)CC(=O)O2)ccc1F', 'UniProt:P51639', 7.54),
  ('CCc1cccc(-c2cc(Cl)cc(Cl)c2/C=C/[C@@H]2C[C@@H](O)CC(=O)O2)c1', 'UniProt:P51639', 7.36),
  ('Cc1cc(C)c(/C=C/[C@@H]2C[C@@H](O)CC(=O)O2)c(-c2ccc(F)c(C)c2)c1 (stereo in doubt; 110 (+))', 'UniProt:P51639', 8.12),
  ('Cc1cc(C)c(/C=C/[C@@H]2C[C@@H](O)CC(=O)O2)c(-c2ccc(Cl)c(Cl)c2)c1', 'UniProt:P51639', 8.10),
  ('O=C1C[C@H](O)C[C@@H](/C=C/c2c(Cl)cc(Cl)cc2-c2ccccc2)O1', 'UniProt:P51639', 7.10),
  ('Cc1cc(C)cc(-c2cc(C)cc(C)c2/C=C/[C@@H]2C[C@@H](O)CC(=O)O2)c1', 'UniProt:P51639', 7.82),
  ('Cc1cccc(-c2cc(Cl)cc(Cl)c2/C=C/[C@@H]2C[C@@H](O)CC(=O)O2)c1', 'UniProt:P51639', 7.80),
  ('Cc1cc(C)c(/C=C/[C@@H]2C[C@@H](O)CC(=O)O2)c(-c2cc(C)c(F)c(C)c2)c1', 'UniProt:P51639', 8.00),
  ('Cc1ccccc1-c1cc(Cl)cc(Cl)c1/C=C/[C@@H]1C[C@@H](O)CC(=O)O1', 'UniProt:P51639', 6.43);

Origin of measurements: ChEMBL document CHEMBL1123390
